The measurements presented in this section are drawn from BigSolDB 2.1.

Details: in toluene, 335.95 K
value_kind: solubility (mole fraction)
Please reply with the number alone, leaving off any unit.

O=c1c2ccccc2sc2ccccc12 yielded solubility (mole fraction) of 0.0181

---

Details: in ethanol, 322.55 K
value_kind: solubility (mole fraction)
The answer should be a number; do not append a unit.

Entry O=c1c2ccccc2sc2ccccc12 — recorded solubility (mole fraction) = 0.00189

---

Details: in acetone, 311.15 K
value_kind: solubility (mole fraction)
Form: value (number only, do not type unit).

solubility (mole fraction) measured on O=c1c2ccccc2sc2ccccc12 = 0.00356

---

Conditions: in isopropanol, 297.05 K
value_kind: solubility (mole fraction)
// return a plain number; no unit text

solubility (mole fraction) for O=c1c2ccccc2sc2ccccc12 is 0.000539

---

Conditions: in acetone, 302.05 K
value_kind: solubility (mole fraction)
Output spec: single numeric token, no unit.

// solubility (mole fraction) value for O=c1c2ccccc2sc2ccccc12 : 0.00265

---

Details: in 1,4-dioxane, 335.95 K
value_kind: solubility (mole fraction)
A bare number is all that is needed in reply.

get_value(item= O=c1c2ccccc2sc2ccccc12 , readout=solubility (mole fraction)) returns 0.0186

---

Conditions: in toluene, 302.05 K
value_kind: solubility (mole fraction)

Quick note, solubility (mole fraction) for O=c1c2ccccc2sc2ccccc12 landed at 0.00554

---

Details: in 1,4-dioxane, 326.55 K
value_kind: solubility (mole fraction)
Please respond with just the number, no unit label.

Data point: O=c1c2ccccc2sc2ccccc12 ; solubility (mole fraction) = 0.0163

---

Conditions: in ethanol, 305.05 K
value_kind: solubility (mole fraction)
Output spec: single numeric token, no unit.

molecule O=c1c2ccccc2sc2ccccc12 , solubility (mole fraction) observed: 0.000544

---

Conditions: in isopropanol, 292.15 K
value_kind: solubility (mole fraction)
Number, no unit, nothing else.

The compound identified as O=c1c2ccccc2sc2ccccc12 registered its solubility (mole fraction) at 0.000395

---

Conditions: in acetonitrile, 292.15 K
value_kind: solubility (mole fraction)
Reply briefly: the number, and no unit.

Value of solubility (mole fraction) reported for the molecule O=c1c2ccccc2sc2ccccc12 is 0.000466

---

Details: in 1,4-dioxane, 331.55 K
value_kind: solubility (mole fraction)

Memo: O=c1c2ccccc2sc2ccccc12 , reported solubility (mole fraction): 0.0175

---

Conditions: in THF, 326.55 K
value_kind: solubility (mole fraction)
// response body must contain only the number

GET /value?item= O=c1c2ccccc2sc2ccccc12 &field=solubility (mole fraction) returns 0.0213

---

Conditions: in isopropanol, 313.85 K
value_kind: solubility (mole fraction)
Just the number.

solubility (mole fraction) reported for this molecule O=c1c2ccccc2sc2ccccc12 : 0.00145

---

Details: in ethyl acetate, 331.55 K
value_kind: solubility (mole fraction)
Field format: numeric only.

Lab book: solubility (mole fraction) of O=c1c2ccccc2sc2ccccc12 noted as 0.0083

---

Conditions: in isopropanol, 316.85 K
value_kind: solubility (mole fraction)
Number only, no unit.

// recorded solubility (mole fraction) for O=c1c2ccccc2sc2ccccc12 : 0.00172

---

Conditions: in toluene, 307.95 K
value_kind: solubility (mole fraction)

In plain terms, O=c1c2ccccc2sc2ccccc12 has a documented solubility (mole fraction) of 0.0069

---

Conditions: in ethyl acetate, 319.35 K
value_kind: solubility (mole fraction)
// keep it numeric: no unit symbol after the value

Entry O=c1c2ccccc2sc2ccccc12 — recorded solubility (mole fraction) = 0.00608
